Taken from ChEMBL document CHEMBL3098075.

- Test system: Rattus norvegicus
- testName: Cardioprotective activity in Sprague-Dawley rat model of myocardial ischemia-reperfusion injury assessed as reduction in MI/AR ratio at 1 to 10 mg/kg, iv bolus administered 15 mins prior to 30 mins LCX ligation by TTC staining-based fluorescence microscopy relative to placebo control
- Assay type: functional, Myocardium
- Design: scale not given: the % may be the effect or the level left
- experimentalContext: dose mg/kg 1-10
Residues, ends and D or L forms follow the SMILES beside them.
Kindly return t if reported Activity is no lower than 30%; return f if it is lower.

Query: Quick check, Activity >= 30%? `O=C(CCCC[C@@H]1CCSS1)Nc1ccc(C(=O)O)cc1`
Response: f

Query: And for `O=C(CCCC[C@@H]1CCSS1)NCCS(=O)(=O)O` ?
Response: t

Query: Follow-up item: O=C(CCCC[C@@H]1CCSS1)NC(CF)C(=O)O (stereo partly drawn)
Response: f

Query: Also, `O=C(O)CC[C@H](NC(=O)CCCC[C@@H]1CCSS1)C(=O)O` please.
Response: t

Query: How about this compound: `O=C(CCCC[C@@H]1CCSS1)NCCP(=O)(O)O`
Response: t

Query: Now consider `O=C(CCCC[C@@H]1CCSS1)N[C@@H](Cc1ccc(O)cc1)C(=O)O` and answer again.
Response: f

Query: Same question, `O=C(CCCC[C@@H]1CCSS1)Nc1cccc(S(=O)(=O)O)c1` this time
Response: t

Query: Next up: `O=C(O)CC[C@H](NC(=O)CCCC[C@@H]1CCSS1)C(=O)NCCS(=O)(=O)O`
Response: t

Query: Next: `O=C(O)CNC(=O)[C@H](CC(=O)O)NC(=O)CCCC[C@@H]1CCSS1`
Response: f

Query: Also need `NC(=O)CC[C@H](NC(=O)CCCC[C@@H]1CCSS1)C(=O)NCC(=O)O` , thanks.
Response: f

Query: Moving on to the next compound: `O=C(CCCC[C@@H]1CCSS1)N[C@@H](Cc1ccc(C(=O)O)cc1)C(=O)O`
Response: f

Query: Request: `O=C(O)CN(CC(=O)O)C(=O)CCCC[C@@H]1CCSS1`
Response: f

Query: Would you mind doing `O=C(CCCC[C@@H]1CCSS1)Nc1ccc(S(=O)(=O)O)cc1` as well?
Response: t

Query: `O=C(O)CCCC[C@@H]1CCSS1` , same question.
Response: f

Query: Then CC(=O)N[C@@H](CCC(=O)O)C(=O)N[C@@H](C)C(=O)O (Ac-Glu-Ala-OH) ?
Response: f

Query: Try this compound too: `O=C(O)CCNC(=O)CCCC[C@@H]1CCSS1`
Response: t

Query: How about CC(=O)N[C@@H](CCC(=O)O)C(=O)N[C@@H](C)C(=O)N[C@@H](CCC(=O)O)C(=O)N[C@@H](C)C(=O)O (Ac-EAEA-OH) ?
Response: f

Query: Please do the same for `C[C@H](NC(=O)[C@H](CCC(=O)O)NC(=O)CCCC[C@@H]1CCSS1)C(=O)O` as well.
Response: t

Query: Same again, this time with `C[C@H](NC(=O)CCCC[C@@H]1CCSS1)C(=O)N[C@@H](CCC(=O)O)C(=O)O`
Response: f

Query: How about this compound: `O=C(CCCC[C@@H]1CCSS1)NCCOP(=O)(O)O`
Response: t

Query: Next entry: `C[C@H](NC(=O)[C@H](Cc1ccc(O)cc1)NC(=O)CCCC[C@@H]1CCSS1)C(=O)O`
Response: t
